- Test Method Notes: KKLEB cell viability reduction – uHTS, fluorescence assay plates, cytotoxicity control for CF NF-kB inhibitor project, primary screen (AID 602141)
- Stated Conditions: KKLEB CF airway cells viability, ATPlite luminescence, overnight; at 5 µM; active compounds read low; cells stimulated with P. aeruginosa culture filtrate
About 1,300 (0.36%) of roughly 360,000 compounds were called active. This excerpt belongs to a sample that is enriched for actives.
Entries and their activity change (cytotoxicity)

Compound: O=C(Nc1cccc2ccccc12)c1onc2c1CCCC2
activity change (cytotoxicity) / %: 5.7
//
Compound: CCCCN=C1C([N+](=O)[O-])=CC=C2C1=NC1(CCCCC1)N2O
activity change (cytotoxicity) / %: -4.3
//
Compound: CC(=O)c1cc(NC(=O)c2ccccc2)c(=O)oc1/C=C/N(C)C
activity change (cytotoxicity) / %: -6.9
//
Compound: COC(=O)c1ccc(S(=O)(=O)NCc2ccccc2)n1C
activity change (cytotoxicity) / %: 9.6
//
Compound: O=C(Nc1cccc(C(=O)NC2CC2)c1)c1ccc(F)c(S(=O)(=O)N2CCOCC2)c1
activity change (cytotoxicity) / %: -2.3
//
Compound: COc1ccc(CN(C(=O)c2cccs2)c2nccs2)cc1OC
activity change (cytotoxicity) / %: 5.6
//
Compound: O=C(CCl)N(Cc1cccc([N+](=O)[O-])c1)c1cccc(Cl)c1
activity change (cytotoxicity) / %: -96.2
//
Compound: COc1ccccc1NC(=O)CSc1nnc(CNC(=O)c2ccccc2F)o1
activity change (cytotoxicity) / %: -0.3
//
Compound: CC(=O)NC(C(=O)NCC(N)=O)C(C)C (stereo unspecified)
activity change (cytotoxicity) / %: -4.4
//
Compound: Cc1ccc(-c2cc(N)on2)cc1
activity change (cytotoxicity) / %: -5.6
//
Compound: COc1ccc(CC(=O)Nc2ccc(-c3nnc(-c4ccc(C)cc4)o3)cc2)cc1
activity change (cytotoxicity) / %: -56.3
